# System: SHP2 C‐SH2 domain (Homo sapiens)
# Construct: SHP2 N-SH2 domain (1–105), C-SH2 domain (106–220), PTP domain (224–541) and; His6 (pETM22 vector) (N, cleaved yes); made in house; host or cells: E. coli BL21(DE3)
# Assay Notes: Fluorescence polarization (FP) binding assay, SHP2 C-SH2 domain
# Run Parameters: 100 nM FAM-labelled peptide, increasing C-SH2 protein, 50 mM HEPES pH 7.5, 150 mM NaCl, 1 mM EDTA, 0.05% Tween 20, FP at 10 min, three independent experiments in technical triplicates, read-out: K D ± SEM, C‐SH2 (FP)
Non-standard residues stand in square brackets, D forms with d. Residues, ends and D or L forms follow the SMILES beside them. *: point of attachment. 5FAM = O=C1OC2(c3ccc(O)cc3Oc3cc(O)ccc32)c2ccc(C(=O)*)cc21; pY = N[C@@H](Cc1ccc(OP(=O)(O)O)cc1)C(=O)O
Endpoint Label: Kd (nM)
The figure you give is taken to be in nM; do not add the unit.

IN: Suppose we examine the compound CC[C@H](C)[C@H](NC(=O)[C@@H](NC(=O)[C@H](C)NC(=O)[C@H](Cc1ccc(OP(=O)(O)O)cc1)NC(=O)[C@H](CCC(=O)O)NC(=O)[C@@H](NC(=O)[C@H](CCC(N)=O)NC(=O)[C@H](CCC(=O)O)NC(=O)c1ccc2c(c1)C(=O)OC21c2ccc(O)cc2Oc2cc(O)ccc21)[C@@H](C)O)[C@@H](C)O)C(=O)N[C@@H](CCCCN)C(=O)N[C@@H](Cc1ccccc1)C(=O)N1CCC[C@H]1C(N)=O [compound 9] (5FAM-EQTE[pY]ATIKFP-NH2) ; what Kd value has been reported?
OUT: 72

* * *

# System: SHP2 C‐SH2 domain (Homo sapiens, UniProt Q06124)
# Construct: SHP2 N-SH2 domain (1–105), C-SH2 domain (106–220), PTP domain (224–541) and; His6 (pETM22 vector) (N, cleaved yes); made in house; host or cells: E. coli BL21(DE3)
# Sequence (Q06124 106-220): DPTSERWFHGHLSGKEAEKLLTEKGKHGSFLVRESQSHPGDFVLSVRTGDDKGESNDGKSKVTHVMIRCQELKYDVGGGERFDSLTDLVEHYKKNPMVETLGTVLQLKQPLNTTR
# Assay Notes: Fluorescence polarization (FP) binding assay, SHP2 C-SH2 domain
# Run Parameters: 100 nM FAM-labelled peptide, increasing C-SH2 protein, 50 mM HEPES pH 7.5, 150 mM NaCl, 1 mM EDTA, 0.05% Tween 20, FP at 10 min, three independent experiments in technical triplicates, read-out: K D ± SEM, C‐SH2 (FP)
Non-standard residues stand in square brackets, D forms with d. Residues, ends and D or L forms follow the SMILES beside them. *: point of attachment. 5FAM = O=C1OC2(c3ccc(O)cc3Oc3cc(O)ccc32)c2ccc(C(=O)*)cc21; pY = N[C@@H](Cc1ccc(OP(=O)(O)O)cc1)C(=O)O
Endpoint Label: Kd (µM)
The figure you give is taken to be in µM; do not add the unit.

IN: Suppose we examine the compound CC[C@H](C)[C@H](NC(=O)[C@@H](NC(=O)[C@H](C)NC(=O)[C@H](Cc1ccc(OP(=O)(O)O)cc1)NC(=O)[C@H](CCC(=O)O)NC(=O)[C@@H](NC(=O)[C@H](CCC(N)=O)NC(=O)c1ccc2c(c1)C(=O)OC21c2ccc(O)cc2Oc2cc(O)ccc21)[C@@H](C)O)[C@@H](C)O)C(=O)N[C@@H](CCCCN)C(=O)N[C@H](C(=O)N1CCC[C@H]1C(N)=O)[C@@H](C)CC [compound 12] (5FAM-QTE[pY]ATIKIP-NH2) ; what Kd value has been reported?
OUT: 0.141
